Form field: protein stability index (one value per entry).
B1: MTMR15 (parent)
chain: FSPDFTLRNTLKSTSEDSLVKQEC

Variants of: B1
Assay: protein stability index of a GFP-peptide fusion (GPS, HEK-293T) (PSI 1-6); higher = more stable;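 further: lentivirally expressed fusions sorted by FACS into six bins by GFP to DsRed ratio, PSI derived from sequencing read proportions per bin multiplied by bin number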
Settings: c terminus: a fixed tail appended

>  <seqText>
FSPDCTLRNTLKSTSEDSLVKQEC

>  <result>
3.42

$$$$
>  <seqText>
FSPDFTLRNTLKETSEDSLVKQEC

>  <result>
2.11

$$$$
>  <seqText>
FSPDFTLRNTLKSTSEDSLFKQEC

>  <result>
3.85

$$$$

Fill in the blank: the reported protein stability index of "FSPDFTLRNTLKSTSEKSLVKQEC" is ____.
1.69

Fill in the blank: the reported protein stability index of "FSPDFTLRNTLKSTSEDSLVAQEC" is ____.
2.81

Fill in the blank: the reported protein stability index of "FSPDFTLRHTLKSTSEDSLVKQEC" is ____.
1.57

Fill in the blank: the reported protein stability index of "FSPDFTLRNTLKSTSEDSCVKQEC" is ____.
2.15

Fill in the blank: the reported protein stability index of "FSPDFTLRNTLKSTSEDSLEKQEC" is ____.
2.12

Fill in the blank: the reported protein stability index of "FSPDFTLRNTLKSTSEDLLVKQEC" is ____.
2.48

Fill in the blank: the reported protein stability index of "FSPDFTLRNTLKDTSEDSLVKQEC" is ____.
2.02

Fill in the blank: the reported protein stability index of "FSPDFTLRCTLKSTSEDSLVKQEC" is ____.
2.35

Fill in the blank: the reported protein stability index of "FSPDFTLRLTLKSTSEDSLVKQEC" is ____.
2.02
